Each item that follows carries a reported Kd.
# target.under.test: GDP-bound KRAS wild-type protein (Homo sapiens, UniProt P01116)
# Sequence (P01116 whole entry): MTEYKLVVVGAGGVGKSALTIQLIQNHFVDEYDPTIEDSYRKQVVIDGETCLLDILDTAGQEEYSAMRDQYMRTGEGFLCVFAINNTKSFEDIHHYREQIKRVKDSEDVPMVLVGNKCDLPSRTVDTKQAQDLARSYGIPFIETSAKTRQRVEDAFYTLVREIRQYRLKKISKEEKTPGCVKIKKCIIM
# test.details: Binding to KRAS by surface plasmon resonance (SPR), Single Cycle Kinetics
# experimental.setup: SPR, Single Cycle Kinetics, GDP-bound KRAS wild-type protein; read-out: KRAS KD
Provide the reading as a plain figure in nM.

# example entries with known answers
[[record]]
compound = "CCO[C@@H]1C[C@H]2C(=O)NC3(CC(C)(C)C3)C(=O)N(C)[C@@H](C3CCCC3)C(=O)N(C)[C@H](C(=O)N(C)CC)CC(=O)N(C)[C@@H](C3CCC3)C(=O)N[C@@H]([C@@H](C)CC)C(=O)N(C)CC(=O)N(C)[C@H]3C/C=C\\CCN(C3=O)[C@@H](Cc3ccc(C(F)(F)F)cc3)C(=O)N(C)CC(=O)N[C@@H](CCc3ccc(C(F)(F)F)c(OC)c3)C(=O)N2C1 [PP1985]"
observed_result = 0.23

[[record]]
compound = "CCC[C@H]1C(=O)N[C@@H]([C@@H](C)CC)C(=O)N(C2CC2)CC(=O)N(C)[C@H]2C/C=C\\CCN(C2=O)[C@@H](Cc2ccc(C)cc2)C(=O)N(C)CC(=O)N[C@@H](CCc2cc(F)c(C(F)(F)F)c(F)c2)C(=O)N2C[C@H](OCC)C[C@H]2C(=O)N(C)C2(CCC2)C(=O)N(C)[C@@H](C2CCCC2)C(=O)N(C)[C@H](C(=O)N2CCCC2)CC(=O)N1C [PP3113]"
observed_result = 0.17


**Q:** Give Kd for the following compound: CC[C@H](C)[C@@H]1NC(=O)[C@H](CC)N(C)C(=O)C[C@@H](C(=O)N(C)CC)N(C)C(=O)[C@H](C2CCCC2)N(C)C(=O)C2(CC(C)(C)C2)NC(=O)[C@@H]2C[C@H](C)CN2C(=O)[C@H](CCc2cc(F)c(C(F)(F)F)c(F)c2)NC(=O)CN(C)C(=O)[C@H](Cc2ccc(C)cc2)N2CC/C=C\C[C@@H](C2=O)N(C)C(=O)CN(C)C1=O [PP1882]
**A:** 0.12
